# TARGET ENTITY: human ERα (Homo sapiens)
# TEST SUMMARY: Creatine kinase expression (ER/CK) in Ad5-wt-hERα infected HAECT-1 cells
Provide the reported log10(EC50) of each item.
Hi team, quick reminder: these entries are log10 of EC50 (µM).

Lab book: log10(EC50) of Cc1cc(O)ccc1-c1nn(C2CCCC2)c2c(-c3cc4ccccc4s3)cccc12 noted as -0.67

get_value(item= CC(C)n1nc(-c2ccc(O)cc2O)c2cccc(F)c21 , readout=log10(EC50)) returns -0.73

# log10(EC50) (compound: CCCCn1nc(-c2ccc(O)cc2)c2ccccc21 ) is -0.14

# compound OCCn1nc(-c2ccc(O)cc2)c2ccccc21 ; its log10(EC50) = 0.05

Per the records, this compound ( Oc1ccc(-c2n[nH]c3cc(Cl)ccc23)cc1 ) has log10(EC50) equal to 0.29

Consider Oc1ccc(-c2nn(C3CCCC3)c3c(-c4ccco4)cccc23)cc1 . Its measured log10(EC50) is -0.68

Noted for Oc1ccc(-c2c3cccc(F)c3nn2C2CCCC2)cc1 : its log10(EC50) reads -1.12

Documented log10(EC50) of C=CCn1nc2c(C(F)(F)F)cccc2c1-c1ccc(O)cc1O : -0.01

For this compound ( CCCn1nc(-c2ccc(O)cc2)c2cccc(F)c21 ), measured log10(EC50) is -0.74

log10(EC50) reported for this compound CC(C)n1nc(-c2ccc(O)cc2)c2cccc(-c3ccco3)c21 : -0.60

get_value(item= Cn1nc(-c2ccc(O)cc2)c2cccc(C(F)(F)F)c21 , readout=log10(EC50)) returns -0.44

Value of measured log10(EC50) for the entry CCCCCn1nc(-c2ccc(O)cc2)c2cccc(Cl)c21 : -0.38

compound Oc1ccc(-c2nn(C3CCCC3)c3c(-c4ccc(O)c(O)c4)cccc23)cc1 , log10(EC50) observed: -0.01

Reported log10(EC50) of CCC(=O)Oc1ccc(-c2nn(C3CCCC3)c3c(F)cccc23)cc1 : -0.78

Noted for C=CCn1nc(-c2ccc(O)cc2)c2cccc(F)c21 : its log10(EC50) reads -0.49

The compound listed as CC(C)n1nc(-c2ccc(O)cc2)c2cccc(F)c21 shows log10(EC50) equal to -0.40

According to the records, this compound Cc1cc(O)ccc1-c1c2cccc(Cl)c2nn1C(C)C displays log10(EC50) of -0.51

Recorded log10(EC50) (compound CCCn1nc2c(Cl)cccc2c1-c1ccc(O)cc1 ): -0.51

---

# TARGET ENTITY: human ERα (Homo sapiens, UniProt P03372)
# Sequence (P03372 whole entry): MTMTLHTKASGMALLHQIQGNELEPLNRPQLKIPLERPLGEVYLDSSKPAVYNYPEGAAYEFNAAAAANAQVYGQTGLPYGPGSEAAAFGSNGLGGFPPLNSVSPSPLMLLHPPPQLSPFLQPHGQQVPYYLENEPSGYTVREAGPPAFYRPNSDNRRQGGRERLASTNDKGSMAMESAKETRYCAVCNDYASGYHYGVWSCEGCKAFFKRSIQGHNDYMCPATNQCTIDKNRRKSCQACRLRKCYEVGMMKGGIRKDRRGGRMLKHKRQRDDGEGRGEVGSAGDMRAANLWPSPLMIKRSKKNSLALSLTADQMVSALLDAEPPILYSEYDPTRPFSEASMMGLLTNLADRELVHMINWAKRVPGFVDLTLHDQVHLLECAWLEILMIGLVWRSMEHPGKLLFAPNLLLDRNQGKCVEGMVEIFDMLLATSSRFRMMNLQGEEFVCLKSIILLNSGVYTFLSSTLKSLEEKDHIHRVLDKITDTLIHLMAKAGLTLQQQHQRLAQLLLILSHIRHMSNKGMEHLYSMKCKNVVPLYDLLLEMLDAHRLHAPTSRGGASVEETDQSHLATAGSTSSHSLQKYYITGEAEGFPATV
# TEST SUMMARY: NF-κB luciferase reporter (ER/NF-KB-luc) in Ad5-wt-hERα infected HAECT-1 cells
# ASSAY CONTEXT: HAECT1, read-out: ER/NF-KB-luc % E2, efficacy relative to the maximal inhibition observed with E2
Returns one of t or f; t when Emax is >= 80%.

Confirm if Emax reported for the compound Cc1ccccc1-c1cccc2c(-c3ccc(O)cc3)nn(C3CCCC3)c12 [Example 245] is 80% or above. f

Dear colleague, could you confirm whether Cn1nc(-c2ccc(O)cc2)c2cccc(C(F)(F)F)c21 [Example 169] has Emax at or above 80%? f

Does the reported Emax for Oc1ccc(-c2n[nH]c3cc(Cl)ccc23)cc1 [Example 134, 4-(6-chloro-1H-indazol-3-yl)phenol] fall at or above the 80% mark? f

// inclusive: Emax at least 80%? input: CC(C)n1nc2c(Cl)cccc2c1-c1ccc(O)cc1 [Example 46] t

---

Give IC50 for every item shown.
# TARGET ENTITY: human ERα (Homo sapiens)
# TEST SUMMARY: NF-κB luciferase reporter (ER/NF-KB-luc) in Ad5-wt-hERα infected HAECT-1 cells
# ASSAY CONTEXT: ER/NF-KB-luc IC50, Ad5-wt-ER infected HAECT-1 cells, IL-1β
Supply the numeric figure in µM, leaving out any unit text.

Input N#Cc1ccc(-n2nc(-c3ccc(O)cc3O)c3ccc(O)cc32)cc1 . Output IC50: 0.164

Per the records, this molecule ( CS(=O)(=O)c1ccc(-n2nc(-c3ccc(O)cc3O)c3ccc(O)cc32)cc1 ) has IC50 equal to 0.551

response.value for CCCCn1nc(-c2ccc(O)cc2)c2ccc(Cl)cc21 (field: IC50) = 0.487

Sample CCCn1nc(-c2ccc(O)cc2)c2cccc(C(F)(F)F)c21 ; IC50 observed: 0.042

Record Cc1cc(O)ccc1-c1nn(C2CCCC2)c2c(-c3ccc(-c4ccccc4)cc3)cccc12 . Reported IC50: 0.098

Reported IC50 ( Cc1cc(O)ccc1-c1nn(C2CCCC2)c2c(-c3cc4ccccc4s3)cccc12 ) = 0.068

Looking up Cc1cc(O)ccc1-c1nn(C(C)C)c2c(Cl)cccc12 , I found its IC50 recorded as 0.041

GET /value?item= OCCn1nc(-c2ccc(O)cc2)c2cccc(F)c21 &field=IC50 returns 0.751

Noted for Oc1ccc(-c2nn(Cc3ccccc3)c3c(F)cccc23)c(O)c1 : its IC50 reads 1.06

// Cc1cc(O)ccc1-c1nn(C(C)C)c2c(-c3ccsc3)cccc12 : IC50 value = 0.012

Data point: CCCn1nc(-c2ccc(O)cc2C)c2cccc(F)c21 ; IC50 = 0.128

---

# TARGET ENTITY: human ERα (Homo sapiens, UniProt P03372)
# TEST SUMMARY: NF-κB luciferase reporter (ER/NF-KB-luc) in Ad5-wt-hERα infected HAECT-1 cells
# ASSAY CONTEXT: HAECT1, read-out: ER/NF-KB-luc % E2, efficacy relative to the maximal inhibition observed with E2
I'd be grateful if you could share measured Emax for these entries.
Field format: number, assumed %, no unit text.

Case CCc1ccc(-c2cccc3c(-c4ccc(O)cc4)nn(C4CCCC4)c23)cc1 , human ERα (Homo sapiens, UniProt P03372), Emax recorded as 60

Record Cc1cc(-c2nn(C3CCCC3)c3c(F)cccc23)ccc1O has human ERα (Homo sapiens, UniProt P03372) Emax equal to 158

# lookup: Cc1cc(O)ccc1-c1nn(C2CCCC2)c2c(-c3ccco3)cccc12 on human ERα (Homo sapiens, UniProt P03372), Emax = 84

Item: CCc1ccc(-c2cccc3c(-c4ccc(O)cc4)nn(C(C)C)c23)cc1 | System: human ERα (Homo sapiens, UniProt P03372) | Emax: 75

CC(C)(C)OC(=O)NCC(=O)NCC(=O)Oc1ccc(-c2nn(C3CCCC3)c3c(F)cccc23)cc1 tested on human ERα (Homo sapiens, UniProt P03372) gave Emax: 63

Response field Emax (human ERα (Homo sapiens, UniProt P03372)) for item CSc1ccc(-c2cccc3c(-c4ccc(O)cc4C)nn(C4CCCC4)c23)cc1 : 76

Tested on human ERα (Homo sapiens, UniProt P03372), the item Cn1nc(-c2ccc(O)cc2)c2cc(F)ccc21 showed Emax equal to 95

// assay human ERα (Homo sapiens, UniProt P03372), entry Cc1cc(O)ccc1-c1nn(C2CCCC2)c2c(Cl)cccc12 , Emax value = 75

Result for Cc1cc(O)ccc1-c1nn(C(C)C)c2c(-c3ccccc3Cl)cccc12 , tested on human ERα (Homo sapiens, UniProt P03372), Emax: 62

Simply: CC(C)n1nc(-c2ccc(O)cc2)c2cccc(F)c21 , human ERα (Homo sapiens, UniProt P03372), Emax = 90

Summary line: Oc1ccc(-c2nn(C3CCCC3)c3c(-c4ccccc4)cccc23)cc1 , human ERα (Homo sapiens, UniProt P03372), reported Emax = 82

Emax for human ERα (Homo sapiens, UniProt P03372) with input Oc1ccc(-c2nn(-c3cccc(Cl)c3)c3cc(O)ccc23)c(O)c1 equals 85

---

# TARGET ENTITY: human ERα (Homo sapiens)
# TEST SUMMARY: NF-κB luciferase reporter (ER/NF-KB-luc) in Ad5-wt-hERα infected HAECT-1 cells
# ASSAY CONTEXT: HAECT1, read-out: ER/NF-KB-luc % E2, efficacy relative to the maximal inhibition observed with E2
Would you kindly list Emax for each of these compounds?

# Emax (compound: C=CCn1nc(-c2ccc(O)cc2)c2cccc(F)c21 ) is 84%

Measured Emax of Cc1cc(O)ccc1-c1nn(C(C)C)c2c(-c3ccccc3C)cccc12 : 89%

Entry CC(C)n1nc(-c2ccc(O)cc2O)c2cccc(F)c21 — recorded Emax = 77%

Query Cc1cc(O)ccc1-c1nn(C2CCCC2)c2c(-c3ccccc3Cl)cccc12 yields Emax of 75%

# compound CCCn1nc2c(Cl)cccc2c1-c1ccc(O)cc1 ; its Emax = 90%

Value of measured Emax for the entry Oc1ccc(-c2nn(C3CCCCC3)c3c(C(F)(F)F)cccc23)cc1 : 91%

compound Cn1nc(-c2ccc(O)cc2O)c2cccc(Cl)c21 , Emax observed: 77%
